Source: PubChem BioAssay (Tox21)

assay: A CellTox Green Cytotoxicity Assay to monitor cytotoxicity in HEK293 cells - 24 hour (AID 1224875); settings: CellTox Green fluorescence; series mostly up to 76.8 µM; note: nearly all actives have a fitted effect of over 45% in size
Results filed as inconclusive are left out. Active and inactive are the calls of the source. Calls come from the whole dose curve; as a rule, active = well fitted activation curve with a large enough effect in the repeat runs; inconclusive = weak or mixed curves; inactive = flat fitted curve, though single readings scatter.
test-readout: activity change

compound	test-readout	measurement
CCC(CO)(CO)CO	activity change	inactive
CCCCCCC(O)CCCCCCCCCCC(=O)OC (configuration not stated)	activity change	inactive
C=CCOC(=O)COCCC(C)C	activity change	inactive
CCOC(=O)c1c(N)sc2c1CCN(Cc1ccccc1)C2	activity change	inactive
O=C(O)CNC(=O)c1ccccc1I	activity change	inactive
CC(C)C1CCC(C(=O)N[C@H](Cc2ccccc2)C(=O)O)CC1 (some centres not stated)	activity change	inactive
